- assay comment: Dynamic solubility experiment at 37° C.
- Assay type: physicochemical
- condition set: FeSSIF, 24 h
Structures can show the parent of a compound that is named as a salt.

compound: Cc1cnc(-c2cc(O[C@@H](C)[C@@H](C)O)cc(C(=O)N[C@H](C)c3cnc(C(F)(F)F)nc3)c2F)s1 [Crystalline form A of hydrochloride]
Crystalline form change: Yes^a

compound: Cc1cnc(-c2cc(O[C@@H](C)[C@@H](C)O)cc(C(=O)N[C@H](C)c3cnc(C(F)(F)F)nc3)c2F)s1 [Crystalline form A of maleate]
Crystalline form change: Yes^a

compound: Cc1cnc(-c2cc(O[C@@H](C)[C@@H](C)O)cc(C(=O)N[C@H](C)c3cnc(C(F)(F)F)nc3)c2F)s1 [Free base crystalline form A]
Crystalline form change: No
